target: Proteasome subunit beta type-8 (Homo sapiens, UniProt P28062); assay: Inhibition of proteasome subunit beta-5i in human Raji cells using BODIPY-NC005 by fluorescent densitometry; assay type: cell-based
Sequence (P28062 whole entry): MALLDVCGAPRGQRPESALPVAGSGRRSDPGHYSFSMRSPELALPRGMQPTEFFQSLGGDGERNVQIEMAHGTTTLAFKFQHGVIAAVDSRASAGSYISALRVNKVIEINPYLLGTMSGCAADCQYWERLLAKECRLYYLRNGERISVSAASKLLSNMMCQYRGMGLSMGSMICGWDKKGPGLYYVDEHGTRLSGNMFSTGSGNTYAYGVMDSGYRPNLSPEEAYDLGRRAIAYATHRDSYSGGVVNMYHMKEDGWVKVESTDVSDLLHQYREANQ
Consider the following molecules; for each one, report its log10 of IC50.
Form field - Quantity: IC50; Unit: nM; Scale: log10

Task item: Report measured log10 of IC50; entry is COc1ccc(C[C@H](NC(=O)[C@H](C)NC(=O)C2=C(C)c3ccccc3C2)C(=O)N[C@@H](CC2CCCCC2)C(=O)[C@@]2(C)CO2)cc1
Reply: 0.48

Task item: Fill in reported log10 of IC50 for this entry: COc1ccc(C[C@H](NC(=O)[C@H](C)NC(=O)C2=C(C)c3ccccc3C2)C(=O)N[C@@H](Cc2ccccc2)C(=O)[C@@]2(C)CO2)cc1
Reply: 0.70

Task item: State its log10 of IC50 for this molecule: COc1ccc(C[C@H](NC(=O)[C@@H](C)NC(=O)C2=C(C)c3ccccc3C2)C(=O)N[C@@H](Cc2ccccc2)C(=O)[C@@]2(C)CO2)cc1
Reply: 0.48

Task item: Give reported log10 of IC50 value for COc1ccc(C[C@H](NC(=O)[C@H](C)NC(=O)CN2CCOCC2)C(=O)N[C@@H](Cc2cccc3ccccc23)C(=O)[C@@]2(C)CO2)cc1
Reply: 2.39

Task item: Please report the measured log10 of IC50 for COc1ccc(C[C@H](NC(=O)[C@H](C)NC(=O)CN2CCOCC2)C(=O)N[C@H](/C=C/S(C)(=O)=O)CC2CCCCC2)cc1
Reply: 3.76

Task item: Let me know recorded log10 of IC50 for C[C@@H](NC(=O)CN1CCOCC1)C(=O)N[C@@H](Cc1c[nH]c2ccccc12)C(=O)N[C@@H](CC1CCCCC1)C(=O)[C@@]1(C)CO1 , thanks.
Reply: 1.51

====

assay: Inhibition of 20s proteasome subunit beta-5c in human Raji cells using BODIPY-NC005 by fluorescent densitometry; type: cell-based
EXPERIMENTAL ENDPOINT: pIC50
FYI, pIC50 means -log10 of a concentration in mol per litre.

Task item: Consider the molecule C[C@@H](NC(=O)CN1CCOCC1)C(=O)N[C@@H](Cc1c[nH]c2ccccc12)C(=O)N[C@@H](Cc1ccc(-c2ccccc2)cc1)C(=O)[C@@]1(C)CO1 and give its recorded pIC50.
Reply: 7.85

Task item: Give me measured pIC50, please, for this molecule: COc1ccc(C[C@H](NC(=O)[C@@H](C)NC(=O)CN2CCOCC2)C(=O)N[C@@H](Cc2ccc(-c3ccccc3)cc2)C(=O)[C@@]2(C)CO2)cc1
Reply: 8.00

Task item: Name the recorded pIC50 of the molecule listed here: COc1ccc(C[C@H](NC(=O)[C@H](C)NC(=O)CN2CCOCC2)C(=O)N[C@@H](Cc2ccccc2)C(=O)[C@@]2(C)CO2)cc1
Reply: 7.27

Task item: Quote pIC50 reported for CC1=C(C(=O)N[C@H](C)C(=O)N[C@@H](Cc2c[nH]c3ccccc23)C(=O)N[C@@H](CC2CCCCC2)C(=O)[C@@]2(C)CO2)Cc2ccccc21 please.
Reply: 5.34

Task item: Identify measured pIC50 associated with COc1ccc(C[C@H](NC(=O)[C@@H](C)NC(=O)C2=C(C)c3ccccc3C2)C(=O)N[C@@H](Cc2ccc(-c3ccccc3)cc2)C(=O)[C@@]2(C)CO2)cc1
Reply: 7.37

Task item: Return pIC50 for the following molecule: COc1ccc(C[C@H](NC(=O)[C@@H](C)NC(=O)C2=C(C)c3ccccc3C2)C(=O)N[C@@H](Cc2ccccc2)C(=O)[C@@]2(C)CO2)cc1
Reply: 6.80

Task item: Answer with the recorded pIC50 of COc1ccc(C[C@H](NC(=O)[C@H](C)NC(=O)C2=C(C)c3ccccc3C2)C(=O)N[C@@H](CC2CCCCC2)C(=O)[C@@]2(C)CO2)cc1 only.
Reply: 7.84

Task item: Supply reported pIC50 belonging to this molecule: CC1=C(C(=O)N[C@H](C)C(=O)N[C@@H](Cc2c[nH]c3ccccc23)C(=O)N[C@H](/C=C/S(C)(=O)=O)Cc2ccccc2)Cc2ccccc21
Reply: 4.60

Task item: Identify measured pIC50 corresponding to CC1=C(C(=O)N[C@H](C)C(=O)N[C@@H](Cc2c[nH]c3ccccc23)C(=O)N[C@@H](Cc2ccccc2)C(=O)[C@@]2(C)CO2)Cc2ccccc21
Reply: 6.64

Task item: Check the records and state pIC50 for COc1ccc(C[C@H](NC(=O)[C@H](C)NC(=O)CN2CCOCC2)C(=O)N[C@@H](Cc2ccc(-c3ccccc3)cc2)C(=O)[C@@]2(C)CO2)cc1
Reply: 7.70

Task item: Read off the recorded pIC50 for CC1=C(C(=O)N[C@H](C)C(=O)N[C@@H](Cc2c[nH]c3ccccc23)C(=O)N[C@H](/C=C/S(C)(=O)=O)CC2CCCCC2)Cc2ccccc21
Reply: 4.21

Task item: Supply reported pIC50 belonging to this molecule: COc1ccc(C[C@H](NC(=O)[C@H](C)NC(=O)CN2CCOCC2)C(=O)N[C@@H](Cc2cccc3ccccc23)C(=O)[C@@]2(C)CO2)cc1
Reply: 5.74
